# measuredTarget: T1, fibroblast activation protein (FAP) on FAP-expressing human WI-38 fibroblasts (human, UniProt Q12884 1-760)
# T1 construct: also called human FAP
# assayProcedure: competitive FACS, WI-38 cells, vs Cy5 tracer m3; A = pIC50 >8.0
Numbered stars: 1 amine (or outer) side, 2 acyl side, 3 side chain; on linkers, the order of the positions; unused ones are H or OH. Bridge positions count the residues as written; N and C are the ends. Square brackets hold non-standard residues; d marks the D form. * marks the point of attachment. mXylylene = c1cc(C[*:1])cc(C[*:2])c1; Hexanoyl = CCCCCC(=O)*
reportedEndpoint: pIC50 Category (FACS)

1) Hexanoyl-CPPTQFCD-NH2 (linker 1-7 via mXylylene; SMILES CCCCCC(=O)N[C@H]1CSCc2cccc(c2)CSC[C@@H](C(=O)N[C@@H](CC(=O)O)C(N)=O)NC(=O)[C@H](Cc2ccccc2)NC(=O)[C@H](CCC(N)=O)NC(=O)[C@H]([C@@H](C)O)NC(=O)[C@@H]2CCCN2C(=O)[C@@H]2CCCN2C1=O) [Hex-[Cys(3MeBn)-Pro-Pro-Thr-Gln-Phe-Cys]-Asp-NH2] : > 8 pIC50

Fill in reported pIC50 Category (FACS) for this entry: Ac-[dM]CPPTEFCDHFRD-NH2 (linker 2-8 via mXylylene; SMILES CSCC[C@@H](NC(C)=O)C(=O)N[C@H]1CSCc2cccc(c2)CSC[C@@H](C(=O)N[C@@H](CC(=O)O)C(=O)N[C@@H](Cc2c[nH]cn2)C(=O)N[C@@H](Cc2ccccc2)C(=O)N[C@@H](CCCNC(=N)N)C(=O)N[C@@H](CC(=O)O)C(N)=O)NC(=O)[C@H](Cc2ccccc2)NC(=O)[C@H](CCC(=O)O)NC(=O)[C@H]([C@@H](C)O)NC(=O)[C@@H]2CCCN2C(=O)[C@@H]2CCCN2C1=O, also called 3BP-3187) [Ac-met-[Cys(3MeBn)-Pro-Pro-Thr-Glu-Phe-Cys]-Asp-His-Phe-Arg-Asp-NH2]
> 8 pIC50
